These measurements were taken from BigSolDB 2.1.

- CONDITION_CONTEXT: in DMF, 318.15 K
OBSERVABLE: solubility (mole fraction)

1) Nc1ccc(Cc2ccc(N)c(Cl)c2)cc1Cl | 0.462

---

- CONDITION_CONTEXT: in methanol, 308.15 K
OBSERVABLE: solubility (mole fraction)

1) Nc1ccc(Cc2ccc(N)c(Cl)c2)cc1Cl | 0.0297

---

- CONDITION_CONTEXT: in ethyl acetate, 303.15 K
OBSERVABLE: solubility (mole fraction)

1. Nc1ccc(Cc2ccc(N)c(Cl)c2)cc1Cl | 0.162

---

- CONDITION_CONTEXT: in isobutanol, 293.15 K
OBSERVABLE: solubility (mole fraction)

1) Nc1ccc(Cc2ccc(N)c(Cl)c2)cc1Cl | 0.0172

---

- CONDITION_CONTEXT: in n-butanol, 298.15 K
OBSERVABLE: solubility (mole fraction)

1) Nc1ccc(Cc2ccc(N)c(Cl)c2)cc1Cl | 0.0425

---

- CONDITION_CONTEXT: in n-propanol, 308.15 K
OBSERVABLE: solubility (mole fraction)

1) Nc1ccc(Cc2ccc(N)c(Cl)c2)cc1Cl | 0.0484

---

- CONDITION_CONTEXT: in 1,4-dioxane, 328.15 K
OBSERVABLE: solubility (mole fraction)

1) Nc1ccc(Cc2ccc(N)c(Cl)c2)cc1Cl | 0.443

---

- CONDITION_CONTEXT: in ethyl acetate, 323.15 K
OBSERVABLE: solubility (mole fraction)

1. Nc1ccc(Cc2ccc(N)c(Cl)c2)cc1Cl | 0.254

---

- CONDITION_CONTEXT: in isobutanol, 318.15 K
OBSERVABLE: solubility (mole fraction)

1. Nc1ccc(Cc2ccc(N)c(Cl)c2)cc1Cl | 0.0357

---

- CONDITION_CONTEXT: in n-propanol, 313.15 K
OBSERVABLE: solubility (mole fraction)

1) Nc1ccc(Cc2ccc(N)c(Cl)c2)cc1Cl | 0.0562
